experiment: viability gain of MRP-1-high H69AR cells under doxorubicin, pilot screen, MRP-1 activator project, CellTiter-Glo, duplicate (AID 807); settings: H69AR viability with doxorubicin, CellTiter-Glo luminescence; at 10 µM; hits give high values;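 further: compound pretreatment 18-22 h then 72 h combined with doxorubicin; 0% = doxorubicin alone and 100% = vehicle without doxorubicin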
So I've got a bunch of compounds here, and I need their viability increase values.
Give bare numbers, in %.

CCCc1nc(SCC(=O)NCc2ccc3c(c2)OCO3)c2c(=O)n(C)c(=O)n(C)c2n1 ... -6.51
CCCSC1=N/C(=C\c2ccsc2)C(=O)S1 ... -0.76
Cn1c(NC(=O)CC2CCCCC2)cc(=O)n(C)c1=O ... -0.04

For every listed record, write down its viability increase.
1. CCCCS(=O)CC(COCc1ccccc1)OC(=O)CSc1nc(C)cc(C)n1 (stereo not drawn)
2. Cc1n[nH]c(C)c1S(=O)(=O)N(CC(=O)NC1CCCC1)c1ccc(C(C)C)cc1
3. CCC(C)Nc1nc2c(c(=O)n(C)c(=O)n2C)n1Cc1ccc(Cl)cc1 (stereo not drawn)
4. CSC1=C(C#N)C(c2ccc(C(C)C)cc2)CC(=O)N1 (stereo not drawn)
5. N#Cc1nc(-c2ccccc2F)oc1NCc1ccccc1
6. c1ccc2c(c1)OCC(c1csc3ncnc(N4CCOCC4)c13)O2 (stereo not drawn)

-1.32
-3.3
-4.21
0.04
1.59
-3.2

###

test: OD615 S. cerevisiae growth inhibition, permissive medium, pilot counter-assay, permissive growth control for S. cerevisiae lifespan shortening project (AID 705); conditions: OD615, 24 h, at 10 µM, hits give high values
Value type: growth inhibition (%)
Answers are plain numbers, in %.

Field: example entries. Status: answers known.
O=C(O)CSCCc1ccccn1 ... 4.38
O=C(NCCN1CCOCC1)c1ccc2c(c1)ncn2C1CCCC1 ... -10
Cc1ccc(NC(=O)c2cnc3scc(C)n3c2=O)c(C)c1 ... -4.27
Cc1ccc(-c2nnc3n2N=C(c2ccc(Br)cc2)CS3)cc1 ... 1.27

Here are 2 compounds. What values of growth inhibition were reported for them?
1. Cc1cc(C(=O)N2CCN(S(C)(=O)=O)CC2)cs1
2. CCCS(=O)(=O)N1CCn2c(nc3ccccc32)C1

[-7.07, 0.585]

###

For each entry below, report its growth inhibition value.
test: OD615 S. cerevisiae growth inhibition, permissive medium, pilot counter-assay, permissive growth control for S. cerevisiae lifespan shortening project (AID 705); conditions: OD615, 24 h, at 10 µM, hits give high values
Numbers only, in %.

CCn1c(=O)cc(O)c2ccccc21 ... 1.77
C=C(C)CSc1nc2c(cc1C#N)CCC2 ... 9.43
Cn1c(=O)c2c(nc(CN3CCN(Cc4ccccc4)CC3)n2Cc2ccccc2)n(C)c1=O ... -6.72
Cc1ccc(-n2nnc3c(=O)n(Cc4ccccc4C)cnc32)cc1 ... -4.99
CSc1ccc(C2C(C#N)=C(N)N(c3ccccc3)C3=C2C(=O)CCC3)cc1 (stereo unspecified) ... -11.5

Now turn to the next compound.
Quick one: growth inhibition of O=C(NCCCn1ccnc1)c1cc(C2CC2)on1 ?
-14.9

###

assay: viability gain of MRP-1-high H69AR cells under doxorubicin, pilot screen, MRP-1 activator project, CellTiter-Glo, duplicate (AID 807); conditions: H69AR viability with doxorubicin, CellTiter-Glo luminescence; at 10 µM; hits give high values;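 further: compound pretreatment 18-22 h then 72 h combined with doxorubicin; 0% = doxorubicin alone and 100% = vehicle without doxorubicin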
Value type: viability increase (%)
One number for each entry, in %.

Previously resolved entries follow.
CCN(CC)Cc1c(O)ccc2c(-c3ccccc3)cc(=O)oc12 ... -1.73
CCOC(=O)C1C(c2cccc(Cl)c2Cl)NC(=O)NC1(O)C(F)(F)F (configuration not stated) ... -2.19
O=C(CCC(=O)OCCCC(F)(F)C(F)(F)F)Nc1ccccc1 ... 1.41
CCCn1c(C(O)c2ccc(OCC)cc2)nc2ccccc21 (configuration not stated) ... -3.93
FC(F)(F)c1cccc(-c2ccc(-c3csnn3)o2)c1 ... -0.47

// each listed compound needs a value for viability increase
1. COc1ccc(NC2=CC(=O)CC(C)(C)C2)cc1OC
2. CCN1CCN(S(=O)(=O)c2ccc3[nH]c(=O)oc3c2)CC1
3. CCn1c(C(C)NC(=O)Cc2ccccc2)nc2ccccc21 (configuration not stated)

[-3.58, -0.48, -1.21]

List reported viability increase for each of these compounds:
1. O=C(C1=C(O)C(=O)N(CCN2CCOCC2)C1c1ccncc1)c1ccco1 (configuration not stated)
2. COc1ccc(-c2cn3c(C)c(C(=O)N4CCN(c5ccccc5)CC4)sc3n2)cc1

1. -3.57
2. -1.3

For each entry beneath this line, provide reported viability increase.
1. CCOc1ccc(NC(=O)c2ccc(S(=O)(=O)N(C)C)cc2)cc1
2. Cc1noc(C)c1S(=O)(=O)NCc1ccc2c(c1)OCO2
3. O=C(O)CN(Cc1ccco1)S(=O)(=O)c1ccccc1
4. O=C(Nc1ccc(N2CCOCC2)c(Cl)c1)C1CCCCC1
5. Cc1nc2sc(C(c3cccs3)N3CCN(c4ccccc4)CC3)c(O)n2n1 (configuration not stated)

1. 0.26
2. -1.12
3. -1.97
4. -2.1
5. -0.21

Dear reader, for each entry below, please note its viability increase.
1. O=C(Nc1nccs1)c1cccc(S(=O)(=O)N2CCOCC2)c1
2. Cc1ccc(-c2nc(CS(=O)CC(=O)NCCCN3CC(C)CC(C)C3)c(C)o2)cc1 (configuration not stated)
3. CCC(=O)N1CCc2cc(Br)cc(S(=O)(=O)N3CCN(C(=O)c4ccco4)CC3)c21
4. Cc1ccc(-n2c(SCC(=O)Nc3nccs3)nc3c(c2=O)SCC3)cc1
5. COc1ccc(N2CCN(c3cc(=O)n(Cc4ccc(F)cc4)c(=O)[nH]3)CC2)cc1

-0.77
-4.27
-1.56
-6.87
-2.97

Please report viability increase for every entry that follows.
1. CCCn1c(CN2CCCCC2C)nc2c1c(=O)n(C)c(=O)n2C (configuration not stated)
2. CC1(C)CC(=O)N(CC(=O)N2CCN(c3ncccn3)CC2)c2ccccc2S1(=O)=O

[-0.39, 0.27]

###

experiment: Restrictive medium S. cerevisiae growth inhibition, OD615, pilot screen of yeast lifespan reduction project, restrictive growth control (AID 706); conditions: OD615, 48 h, at 10 µM, hits give high values;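 further: modified DeaD lifespan yeast strain shifted to restrictive glucose medium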
Could you please report measured growth inhibition for the items listed next?
Give bare numbers, in %.

Check out these entries, answers already filled in.
Cc1ccc(-c2nc(CS(=O)CC(=O)NCCN3CCOCC3)c(C)o2)cc1 (stereo unspecified) ... 2.29
COc1ccc(Cl)cc1NC(=O)C1CCCO1 (stereo unspecified) ... -9.53
CCC1CCCCN1C(=O)CSc1nc2c(cnn2-c2ccc(C)cc2)c(=O)[nH]1 (stereo unspecified) ... -5.33
Cc1noc(NS(=O)(=O)c2ccc(NC(=O)CSc3nc4c(cc3C#N)CCC4)cc2)c1C ... 48
O=C(CSc1ccccn1)c1ccc2c(c1)OCO2 ... 9.94

# map each molecule to its growth inhibition
1. COc1cccc2c1N1C(=O)c3c(C(=O)O)cccc3C1CC2(C)C (stereo unspecified)
2. O=C(NCCc1csc(-c2cccnc2)n1)c1cccs1
3. COC(=O)C(CCSC)NC(=O)Cn1ncc2c(=O)oc3ccc(C)cc3c21 (stereo unspecified)
4. O=C(CC1Oc2ccccc2NC1=O)NC1CC1 (stereo unspecified)

1: -18.1; 2: 4.78; 3: -7.95; 4: -2.85

Please give growth inhibition, item by item, for the list that follows.
1. N#CC1=C(N)OC2=C(C(=O)CCC2)C1c1ccsc1 (stereo unspecified)
2. CCOc1ccc2nc(N3CCCC(C(=O)NCCCN4CCOCC4)C3)sc2c1 (stereo unspecified)

[-3.94, -15.6]

###

Would you mind telling me the reported viability increase of each entry?
assay: viability gain of MRP-1-high H69AR cells under doxorubicin, pilot screen, MRP-1 activator project, CellTiter-Glo, duplicate (AID 807); conditions: H69AR viability with doxorubicin, CellTiter-Glo luminescence; at 10 µM; hits give high values;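 further: compound pretreatment 18-22 h then 72 h combined with doxorubicin; 0% = doxorubicin alone and 100% = vehicle without doxorubicin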
Give bare numbers, in %.

COCC(C)NC(=O)NC1(C(F)(F)F)Oc2ccc(Cl)cc2O1 (centres undefined) ... -5.78

Quick one: give me viability increase for each item below, same order please.
1. CCCCC(CC)CNC(=O)CCS(=O)(=O)c1cccc2nsnc12 (centres undefined)
2. Cc1ccc(CCNC(=O)C2CCCN(S(=O)(=O)c3c(C)noc3/C=C/N(C)C)C2)cc1 (centres undefined)

-2.97
-1.67

# per-item lookup of viability increase; items listed below
1. O=C(O)Cc1ccc(NC(=O)C2CC=CCC2C(=O)O)cc1 (centres undefined)
2. CCOC(=O)c1cc(-c2ccc(F)cc2)n(CC(=O)Nc2nccs2)c1C

1: 1.02; 2: -5.35

###

experiment: OD615 S. cerevisiae growth inhibition, permissive medium, pilot counter-assay, permissive growth control for S. cerevisiae lifespan shortening project (AID 705); conditions: OD615, 24 h, at 10 µM, hits give high values
Value type: growth inhibition (%)
Numbers only, in %.

Known growth inhibition results, listed for orientation:
CCC(C)NC(=O)CCCCCn1c(=O)[nH]c2cc(OC)c(OC)cc2c1=O (stereo unspecified) ... -18.5
Cc1c(C(=O)NCc2cccnc2)sc2nc(-c3ccccc3)cn12 ... -4.69
COc1ccccc1-c1cc(C(=O)N2CCCCC2)no1 ... -6.35
COc1ccc(S(=O)(=O)N2CCC(C(=O)N3CCc4ccccc4C3)CC2)cc1OC ... 1.07
Cc1cc(C(=O)N2CCN(Cc3ccc4c(c3)OCO4)CC2)on1 ... -6.71

List reported growth inhibition for each of these molecules:
1. CC(C)NC(=O)c1cc2c(-c3ccc(Cl)cc3)nn(C)c2s1
2. Cc1ccc(CNC(=O)CS(=O)Cc2nc(-c3cccs3)oc2C)cc1 (stereo unspecified)
3. CC1CCN(c2nc3ccccc3nc2C(C#N)S(=O)(=O)c2ccccc2)CC1 (stereo unspecified)
4. N#CCCn1c(C(C#N)(CCC#N)CCC#N)nc2ccccc21
5. OC(COc1ccccc1Cl)CN1CCN(CC(O)COc2ccccc2Cl)CC1 (stereo unspecified)

1. -10.4
2. 13.6
3. -32.5
4. 5.8
5. 3.62

Which growth inhibition is reported for this molecule? CCCOc1ccc(C2c3c(oc4cc(C)c(C)cc4c3=O)C(=O)N2CCCN(C)C)cc1OCC (stereo unspecified)
-10.6
